These data points were gathered from ChEMBL document CHEMBL1148584.

- Test system: CHO-MG
- Assay method text: Inhibition of cell growth in CHO-MG cells in the presence of DFMO
- Format: functional, cell-based
- Condition parameters: Cricetulus griseus
Quantity name: IC50 (µM)

CNc1cccc2c1[C@H](C)C[C@]1(C)C(NCCCCN)=Nc3ccccc3[C@H]21 :: 30
CC1C[C@]2(C)C(NCCCCN)=Nc3ccccc3[C@@H]2N(C)c2ccccc21 (stereo not given in full) :: 24

###

- Tested on: L1210
- Assay method text: Inhibition of cell growth in L1210 cells in the presence of DFMO
- Format: functional, cell-based
- Condition parameters: Mus musculus
pIC50: −log10 of the molar value.
Quantity name: pIC50

CNc1ccc(C2c3ccccc3N=C(NCCCNCCCCNCCCN)C2(C)C)cc1 (stereo not drawn) :: 5.51
CC1C[C@]2(C)C(NCCCNCCCCNCCCN)=Nc3ccccc3[C@@H]2N(C)c2ccccc21 (stereo partly drawn) :: 6.00
CN(c1ccccc1)C1c2ccccc2N=C(NCCCCN)C1(C)C (stereo not drawn) :: 4.48
CNc1cccc2c1[C@H](C)C[C@]1(C)C(NCCCCN)=Nc3ccccc3[C@H]21 :: 4.25
CNc1cccc2c1[C@H](C)C[C@]1(C)C(NCCCNCCCCNCCCN)=Nc3ccccc3[C@H]21 :: 5.62
CC1C[C@]2(C)C(NCCCCN)=Nc3ccccc3[C@@H]2N(C)c2ccccc21 (stereo partly drawn) :: 4.27
CN(c1ccccc1)C1c2ccccc2N=C(NCCCNCCCCNCCCN)C1(C)C (stereo not drawn) :: 5.64
